test system: morningglory; assay: Test B pre/postemergence morningglory; format: in vivo, Ipomoea hederacea; conditions: Preemergence, Rate 500 g/ha; scale 0 (no effect) to 10 (complete control)
ENDPOINT_LABEL: Morningglory plant response rating
Form field (numeric): enter value without unit.

Input: Recall the reported Morningglory plant response rating of Cc1ccccc1-n1c(=O)on(C(=O)N(C2=CCOCC2)C(C)C)c1=O [Compound 10] when tested on morningglory.
Output: 0

Input: Recall the reported Morningglory plant response rating of Cc1ccccc1-n1c(=O)on(C(=O)N(c2ccc(Cl)cc2)C(C)C)c1=O [Compound 41] when tested on morningglory.
Output: 0

Input: Recall the reported Morningglory plant response rating of CCN(CC)C(=O)n1oc(=O)n(-c2cccc3c2CCCC3)c1=O [Compound 89] when tested on morningglory.
Output: 0

Input: Recall the reported Morningglory plant response rating of CCN(CC)C(=O)n1oc(=O)n(-c2ccc(OC)cc2)c1=O [Compound 1] when tested on morningglory.
Output: 0

Input: Recall the reported Morningglory plant response rating of Cc1ccccc1Cn1c(=O)on(C(=O)N(c2ccc(F)cc2)C(C)C)c1=O [Compound 88] when tested on morningglory.
Output: 0

---
Input: Recall the reported Morningglory plant response rating of CC(C)N(C(=O)n1oc(=O)n(-c2cc(Cl)cc(Cl)c2)c1=O)C1=CCOCC1 [Compound 9] when tested on morningglory.
Output: 0

Input: Recall the reported Morningglory plant response rating of CCN(C(=O)n1oc(=O)n(-c2c(C)cc(C)cc2C)c1=O)C1CCCCC1 [Compound 63] when tested on morningglory.
Output: 0

###

Quick reference for Plant response rating, Giant foxtail among some compounds
tested on: giant foxtail; assay: Test B pre/postemergence giant foxtail; format: in vivo, Setaria faberii; conditions: Postemergence, Rate 125 g/ha; scale of 0 to 10 where 0 is no effect and 10 is complete control
Form field (numeric): enter value without unit.

Input: Kindly indicate its recorded Plant response rating, Giant foxtail. Item: CC(C)N(C(=O)n1oc(=O)n(CC(=O)C2CCC2)c1=O)c1ccccc1
Output: 0

Input: Kindly indicate its recorded Plant response rating, Giant foxtail. Item: CCc1nc(C)c(C(C)n2c(=O)on(C(=O)N(c3ccc(Cl)cc3)C(C)C)c2=O)s1 (stereo not shown)
Output: 0

Input: Kindly indicate its recorded Plant response rating, Giant foxtail. Item: CCc1nc(C)c(C(C)n2c(=O)on(C(=O)N(c3ccc(F)cc3F)C(C)C)c2=O)s1 (stereo not shown)
Output: 0

For the next question, use this compound.
Input: Kindly indicate its recorded Plant response rating, Giant foxtail. Item: CC(C)N(C(=O)n1oc(=O)n(CCCCF)c1=O)c1ccccc1
Output: 8

###

Quick reference for Morningglory plant response rating among some molecules
system: morningglory; test: Test B pre/postemergence morningglory; format: in vivo, Ipomoea hederacea; conditions: Rate 62 g/ha, Postemergence; scale of 0 to 10 where 0 is no effect and 10 is complete control
Form field (numeric): enter value without unit.

The cases that follow already have their Morningglory plant response rating on record.
Input: Kindly indicate its recorded Morningglory plant response rating. Item: CC(C)N(C(=O)n1oc(=O)n(C(C)CCl)c1=O)c1ccc(F)cc1 (stereo not shown)
Output: 5

Input: Kindly indicate its recorded Morningglory plant response rating. Item: CC(C)Cn1c(=O)on(C(=O)N(c2ccc(F)cc2)C(C)C)c1=O
Output: 1

Input: Kindly indicate its recorded Morningglory plant response rating. Item: CC(C)N(C(=O)n1oc(=O)n(CCC(F)=C(F)F)c1=O)c1ccc(F)cc1
Output: 3

For the next question, use this molecule.
Input: Kindly indicate its recorded Morningglory plant response rating. Item: CC(C)N(C(=O)n1oc(=O)n(C2CCCCC2)c1=O)c1ccc(Cl)cc1
Output: 4

###

Quick reference for Velvetleaf plant response rating among some compounds
tested on: velvetleaf; experiment: Test B pre/postemergence velvetleaf; type: in vivo, Abutilon theophrasti; settings: Preemergence, Rate 250 g/ha; scale 0 (no effect) to 10 (complete control)
Form field (numeric): enter value without unit.

The cases that follow already have their Velvetleaf plant response rating on record.
Input: Recall the reported Velvetleaf plant response rating of CC(C)N(C(=O)n1oc(=O)n(CCC(=O)N(C)C)c1=O)c1ccc(Cl)cc1 [Compound 719] when tested on velvetleaf.
Output: 0

Input: Recall the reported Velvetleaf plant response rating of C#CC(C)n1c(=O)on(C(=O)N(c2ccc(F)cc2)C(C)C)c1=O (stereo not shown) [Compound 763] when tested on velvetleaf.
Output: 1

---
Input: Recall the reported Velvetleaf plant response rating of CC(C)N(C(=O)n1oc(=O)n(C(C)C(=S)N(C)C)c1=O)c1ccc(F)cc1 (stereo not shown) [Compound 728] when tested on velvetleaf.
Output: 0

Input: Recall the reported Velvetleaf plant response rating of COC(CCl)n1c(=O)on(C(=O)N(c2ccc(F)cc2F)C(C)C)c1=O (stereo not shown) [Compound 737] when tested on velvetleaf.
Output: 4

###

Quick reference for Wild oats plant response rating among some compounds
tested on: wild oat; assay: Test B pre/postemergence wild oat; format: in vivo, Avena fatua; conditions: Preemergence, Rate 500 g/ha; scale 0 (no effect) to 10 (complete control)

Input: Kindly indicate its recorded Wild oats plant response rating. Item: Cc1cccc(C)c1-n1c(=O)on(C(=O)N(c2ccccc2)C(C)C)c1=O
Output: 0

Input: Kindly indicate its recorded Wild oats plant response rating. Item: CCN(C(=O)n1oc(=O)n(-c2c(C)cc(C)cc2C)c1=O)C1CCCCC1
Output: 0

Input: Kindly indicate its recorded Wild oats plant response rating. Item: CC(C)N(C(=O)n1oc(=O)n(Cc2cccs2)c1=O)c1ccc(F)cc1
Output: 5

For the next question, use this compound.
Input: Kindly indicate its recorded Wild oats plant response rating. Item: Cc1ccccc1Cn1c(=O)on(C(=O)N(c2ccc(F)cc2)C(C)C)c1=O
Output: 5

###

test system: velvetleaf; test: Test B pre/postemergence velvetleaf; type: in vivo, Abutilon theophrasti; details: Preemergence, Rate 250 g/ha; scale of 0 to 10 where 0 is no effect and 10 is complete control
Quick reference for Velvetleaf plant response rating among some compounds
Form field (numeric): enter value without unit.

Input: Recall the reported Velvetleaf plant response rating of CC(C)N(C(=O)n1oc(=O)n(C2CCCCO2)c1=O)c1ccc(F)cc1 (centres unmarked) when tested on velvetleaf.
Output: 0

Input: Recall the reported Velvetleaf plant response rating of Cc1ccccc1-n1c(=O)on(C(=O)N(c2ccc(F)cc2)C(C)C2CC2)c1=O (centres unmarked) when tested on velvetleaf.
Output: 0

Input: Recall the reported Velvetleaf plant response rating of C=C(Cn1c(=O)on(C(=O)N(c2ccc(F)cc2)C(C)C)c1=O)C[Si](C)(C)C when tested on velvetleaf.
Output: 0

Input: Recall the reported Velvetleaf plant response rating of Cc1c(-n2c(=O)on(C(=O)N(c3ccc(F)cc3)C(C)C)c2=O)ccc2ccccc12 when tested on velvetleaf.
Output: 0

For the next question, use this compound.
Input: Recall the reported Velvetleaf plant response rating of CC(C)=CCn1c(=O)on(C(=O)N(c2ccc(F)cc2)C(C)C)c1=O when tested on velvetleaf.
Output: 3

###

system: wheat; test: Test B pre/postemergence wheat; format: in vivo, Triticum aestivum; conditions: Postemergence, Rate 62 g/ha; scale 0 to 10, 0 is no effect, 10 is complete control
Quick reference for Wheat plant response rating among some compounds
Form field (numeric): enter value without unit.

The cases that follow already have their Wheat plant response rating on record.
Input: Kindly indicate its recorded Wheat plant response rating. Item: CCc1ccccc1-n1c(=O)on(C(=O)N(c2ccc(F)cc2F)C(C)C)c1=O
Output: 0

Input: Kindly indicate its recorded Wheat plant response rating. Item: CC(C)Oc1cc(-n2c(=O)on(C(=O)N(c3ccc(F)cc3)C(C)C)c2=O)c(Cl)cc1Cl
Output: 0

Input: Kindly indicate its recorded Wheat plant response rating. Item: CC(C)N(C(=O)n1oc(=O)n(Cc2cccs2)c1=O)c1ccc(F)cc1
Output: 0

Input: Kindly indicate its recorded Wheat plant response rating. Item: Cc1ccccc1-n1c(=O)on(C(=O)N(C2=CCOCC2)C(C)C)c1=O
Output: 0

---
Input: Kindly indicate its recorded Wheat plant response rating. Item: Cc1nn(C)c(C)c1-n1c(=O)on(C(=O)N(c2ccc(F)cc2)C(C)C)c1=O
Output: 0

###

system: wild oat; assay: Test B pre/postemergence wild oat; type: in vivo, Avena fatua; details: Preemergence, Rate 125 g/ha; scale 0 to 10, 0 is no effect, 10 is complete control
ENDPOINT_LABEL: Wild oats plant response rating
Form field (numeric): enter value without unit.

Input: Recall the reported Wild oats plant response rating of CC(C)N(C(=O)n1oc(=O)n(CC2CC2)c1=O)c1ccccc1 [Compound 568] when tested on wild oat.
Output: 5

Input: Recall the reported Wild oats plant response rating of CCC(=O)Cn1c(=O)on(C(=O)N(c2ccc(Cl)cc2)C(C)C)c1=O [Compound 553] when tested on wild oat.
Output: 0

Input: Recall the reported Wild oats plant response rating of CCOC(=O)C=C(Cn1c(=O)on(C(=O)N(c2ccc(F)cc2F)C(C)C)c1=O)OCC [Compound 519] when tested on wild oat.
Output: 0

Input: Recall the reported Wild oats plant response rating of CC(C)N(C(=O)n1oc(=O)n(CCC2OCCO2)c1=O)c1ccc(Cl)cc1 [Compound 531] when tested on wild oat.
Output: 0

---
Input: Recall the reported Wild oats plant response rating of CC(C)=CCn1c(=O)on(C(=O)N(c2ccc(Cl)cc2)C(C)C)c1=O [Compound 545] when tested on wild oat.
Output: 0

Value source: patent US6737383B1
